Biological target: NRAS Q61K (Homo sapiens, UniProt P01111+P62937, Q61K)
Sequence (P01111 whole entry Q61K, one chain of several): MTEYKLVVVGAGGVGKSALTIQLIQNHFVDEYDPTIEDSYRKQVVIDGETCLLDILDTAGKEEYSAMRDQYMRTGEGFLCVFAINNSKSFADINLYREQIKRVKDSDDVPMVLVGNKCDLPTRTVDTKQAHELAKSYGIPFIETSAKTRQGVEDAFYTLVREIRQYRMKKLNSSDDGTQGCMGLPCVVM
Test: Ras-Raf disruption / FRET / MOA assay (BRAF RBD)
Assay type: biochemical
Conditions: NRAS Q61K; read-out: NRAS Q61K FRET data IC50
pIC50: −log10 of the molar value.
Parameter pIC50: see the listing below.

compound	pIC50
CCn1c(-c2cccnc2[C@H](C)OC)c2c3cc(ccc31)-c1cc(O)cc(c1)C[C@H](NC(=O)[C@H](C(C)C)N(C)C(=O)[C@H]1CCCCN(C(=O)[C@H]3CN3)C1)C(=O)N1CCC[C@H](N1)C(=O)OCC(C)(C)C2 (atropisomer, axis not shown) [Example 247]	5.00 to 6.00
CCn1c(-c2cccnc2[C@H](C)OC)c2c3cc(ccc31)-c1csc(n1)C[C@H](NC(=O)[C@H](C(C)C)N(C)C(=O)N1CCC(CN(C)C(=O)[C@H]3CN3)CC1)C(=O)N1CCC[C@H](N1)C(=O)OCC(C)(C)C2 (atropisomer, axis not shown) [Example 326]	7.00 to 8.00
CCn1c(-c2cccnc2[C@H](C)OC)c2c3cc(ccc31)-c1csc(n1)C[C@H](NC(=O)[C@H](C(C)C)N(C)C(=O)N1CCN(C(=O)[C@@H]3CN3)[C@@H](C)C1)C(=O)N1CCC[C@H](N1)C(=O)OCC(C)(C)C2 [Example 298]	7.00 to 8.00
CCn1c(-c2cccnc2[C@H](C)OC)c2c3cc(ccc31)-c1csc(n1)C[C@H](NC(=O)[C@H](C(C)C)N(C)C(=O)N1CCCN(C(=O)[C@H]3CN3)CC1)C(=O)N1CCC[C@H](N1)C(=O)OCC(C)(C)C2 (atropisomer, axis not shown) [Example 222]	7.00 to 8.00

----------
Target: NRAS Q61R (Homo sapiens, UniProt P01111+P62937, Q61R)
Sequence (P01111 whole entry Q61R, one chain of several): as the sequence (P01111 whole entry Q61K, one chain of several) above, with K61R counted along it
Test: Disruption of BRAF RBD interaction with Ras (FRET / MOA assay, with Cyclophilin A)
Format: biochemical
Conditions: NRAS Q61R; read-out: NRAS Q61R FRET data IC50
pIC50: −log10 of the molar value.
readout.kind: pIC50

compound	tgt	readout.kind	endpoint.result
CCn1c(-c2cccnc2[C@H](C)OC)c2c3cc(ccc31)-c1csc(n1)C[C@H](NC(=O)[C@H](C(C)C)N(C)C(=O)N1C[C@H](OC)[C@@H](N)C1)C(=O)N1CCC[C@H](N1)C(=O)OCC(C)(C)C2 (atropisomer, axis not shown)	NRAS Q61R (Homo sapiens, UniProt P01111+P62937, Q61R)	pIC50	6.00 to 7.00
CCn1c(-c2cccnc2[C@H](C)OC)c2c3cc(ccc31)-c1csc(n1)C[C@H](NC(=O)[C@H](C(C)C)N(C)C(=O)N1CC3(CC(N4CCOCC4)C3)C1)C(=O)N1CCC[C@H](N1)C(=O)OCC(C)(C)C2 (atropisomer, axis not shown)	NRAS Q61R (Homo sapiens, UniProt P01111+P62937, Q61R)	pIC50	6.00 to 7.00
CCn1c(-c2cccnc2[C@H](C)OC)c2c3cc(ccc31)-c1csc(n1)C[C@H](NC(=O)[C@H](COC1CN(C(=O)C#CC(C)(C)N(C)C)C1)OC)C(=O)N1CCC[C@H](N1)C(=O)OCC(C)(C)C2 (atropisomer, axis not shown)	NRAS Q61R (Homo sapiens, UniProt P01111+P62937, Q61R)	pIC50	< 5.00
C=CC(=O)N1CCCC2(CCN(C(=O)N(C)[C@H](C(=O)N[C@H]3Cc4nc(cs4)-c4ccc5c(c4)c(c(-c4cccnc4[C@H](C)OC)n5CC)CC(C)(C)COC(=O)C4CCCN(N4)C3=O)C(C)C)CC2)C1 (stereo partly shown)	NRAS Q61R (Homo sapiens, UniProt P01111+P62937, Q61R)	pIC50	6.00 to 7.00

----------
Target: KRAS Q61H (Homo sapiens, UniProt P01116+P62937, Q61H)
Sequence (P01116 1-169 isoform P01116-2 Q61H limits assumed): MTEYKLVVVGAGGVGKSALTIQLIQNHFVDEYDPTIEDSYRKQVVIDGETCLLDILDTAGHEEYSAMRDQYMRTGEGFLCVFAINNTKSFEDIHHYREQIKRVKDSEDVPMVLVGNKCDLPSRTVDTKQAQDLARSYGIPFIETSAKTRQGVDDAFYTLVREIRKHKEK
Sequence (P62937 whole entry): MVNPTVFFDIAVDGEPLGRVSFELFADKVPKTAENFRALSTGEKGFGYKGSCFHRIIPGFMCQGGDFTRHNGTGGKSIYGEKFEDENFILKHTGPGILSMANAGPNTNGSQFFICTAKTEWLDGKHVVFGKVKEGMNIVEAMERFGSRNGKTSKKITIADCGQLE
Experiment: Disruption of BRAF RBD interaction with Ras (FRET / MOA assay, with Cyclophilin A)
Format: biochemical
Settings: KRAS Q61H; read-out: KRAS Q61H FRET data IC50

compound	IC50
CCn1c(-c2cccnc2[C@H](C)OC)c2c3cc(cnc31)-c1csc(n1)C[C@H](NC(=O)[C@H](C(C)C)N(C)C(=O)N1CC(OC)C1)C(=O)N1CCC[C@H](N1)C(=O)OCC(C)(C)C2	100 to 1000 nM
CCn1c(-c2cccnc2[C@H](C)OC)c2c3cc(ccc31)-c1csc(n1)C[C@H](NC(=O)[C@H](C(C)C)N(C)C(=O)N1CC(C(C)(C)OC)C1)C(=O)N1CCC[C@H](N1)C(=O)OCC(C)(C)C2 (atropisomer, axis not shown)	10 to 100 nM

----------
Parameter pIC50: see the listing below.
Molecular target: KRAS G12V (Homo sapiens, UniProt P01116+P62937, G12V)
Sequence (P01116 1-169 isoform P01116-2 G12V limits assumed): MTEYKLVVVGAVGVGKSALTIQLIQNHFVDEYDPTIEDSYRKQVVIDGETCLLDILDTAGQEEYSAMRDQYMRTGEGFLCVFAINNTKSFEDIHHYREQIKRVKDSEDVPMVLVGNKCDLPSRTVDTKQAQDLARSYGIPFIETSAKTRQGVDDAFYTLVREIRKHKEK
Sequence (P62937 whole entry): as the sequence (P62937 whole entry) above
Assay: Disruption of BRAF RBD interaction with Ras (FRET / MOA assay, with Cyclophilin A)
Assay type: biochemical
Settings: KRAS G12V FRET data IC50, KRAS G12V
Source text: This protocol may also be executed substituting other Ras proteins or nucleotides. The purpose of this biochemical assay was to measure the ability of test compounds to facilitate ternary complex formation between a nucleotide-loaded K-Ras isoform and Cyclophilin A; the resulting ternary complex disrupts binding to a BRAF^RBD construct, inhibiting K-Ras signaling through a RAF effector. Data is reported as IC50 values. […]
pIC50: −log10 of the molar value.
readout.kind: pIC50

compound	endpoint.result
CCn1c(-c2cnccc2COC)c2c3cc(ccc31)-c1cc(O)cc(c1)C[C@H](NC(=O)[C@H](C(C)C)N(C)C(=O)OC1CCOC1)C(=O)N1CCC[C@H](N1)C(=O)OCC(C)(C)C2 (stereo partly shown) [Example A50]	5.00 to 6.00
C=CC(=O)N1CC[C@H](C(=O)N(C)[C@H](C(=O)N[C@H]2Cc3cccc(c3)-c3ccc4c(c3)c(c(-c3cccnc3[C@H](C)OC)n4CC)CC(C)(C)COC(=O)[C@@H]3CCCN(O3)C2=O)C(C)C)C1 [Example A284]	< 5.00
CCn1c(-c2cccnc2[C@H](C)OC)c2c3cc(ccc31)-c1cc(O)cc(c1)C[C@H](NC(=O)[C@H](C(C)C)N(C)C(=O)[C@@H]1CC1(F)F)C(=O)N1CCC[C@H](N1)C(=O)OCC(C)(C)C2 [Example A167]	6.00 to 7.00
CCn1c(-c2cnccc2COC)c2c3cc(ccc31)-c1cc(O)cc(c1)C[C@H](NC(=O)[C@H](C(C)C)N(C)C(=O)[C@H]1CCN(S(=O)(=O)N3CC(O)C3)C1)C(=O)N1CCC[C@H](N1)C(=O)OCC(C)(C)C2 [Example A37]	6.00 to 7.00

----------
Target: KRAS WT (Homo sapiens, UniProt P01116+P62937)
Sequence (P01116 1-169 isoform P01116-2 limits assumed, one chain of several): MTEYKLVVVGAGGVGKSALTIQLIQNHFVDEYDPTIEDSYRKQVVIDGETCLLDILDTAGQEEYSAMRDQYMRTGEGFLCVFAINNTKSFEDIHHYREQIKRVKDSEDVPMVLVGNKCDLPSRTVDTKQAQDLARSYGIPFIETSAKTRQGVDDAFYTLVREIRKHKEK
Test: Ras-Raf disruption / FRET / MOA assay (BRAF RBD)
Assay type: biochemical
Conditions: Ras-Raf disruption, with Cyclophilin A; read-out: KRAS WT FRET data IC50
Excerpt: Disruption of […] Ras-binding Domain (BRAF^RBD) Interaction with K-Ras by Compounds of the Invention (also Called a FRET Assay or an MOA Assay) Note—The following protocol describes a procedure for monitoring disruption of K-Ras G12C (GMP-PNP) binding to BRAF^RBD by a compound of the invention. This protocol may also be executed substituting other Ras proteins or nucleotides, such as K-Ras G12D and K-Ras G13D. […]
pIC50: −log10 of the molar value.

compound	tgt	pIC50
CCn1c(-c2cccnc2[C@H](C)OC)c2c3cc(ccc31)-c1cc(O)cc(c1)C[C@H](NC(=O)[C@H](C(C)C)N(C)C(=O)N1CCN(C(=O)[C@@H]3CN3)C(=O)C1)C(=O)N1CCC[C@H](N1)C(=O)OCC(C)(C)C2 [Example 197]	KRAS WT (Homo sapiens, UniProt P01116+P62937)	7.00 to 8.00
CCn1c(-c2cccnc2[C@H](C)OC)c2c3cc(ccc31)-c1cc(O)cc(c1)C[C@H](NC(=O)[C@H](C(C)C)N(C)C(=O)N1CC[C@H](N(C)C(=O)[C@@H]3CN3)C1)C(=O)N1CCC[C@H](N1)C(=O)OCC(C)(C)C2 (atropisomer, axis not shown)	KRAS WT (Homo sapiens, UniProt P01116+P62937)	6.00 to 7.00
CCn1c(-c2cccnc2[C@H](C)OC)c2c3cc(ccc31)-c1cc(O)cc(c1)C[C@H](NC(=O)[C@H](C(C)C)N1CC[C@@]3(CCN(C(=O)[C@@H]4N[C@@H]4C4CC4)C3)C1=O)C(=O)N1CCC[C@H](N1)C(=O)OCC(C)(C)C2	KRAS WT (Homo sapiens, UniProt P01116+P62937)	6.00 to 7.00
CCn1c(-c2cccnc2[C@H](C)OC)c2c3cc(ccc31)-c1cc(O)cc(c1)C[C@H](NC(=O)[C@H](C(C)C)N(C)C(=O)[C@@H]1CCN(C(=O)[C@@H]3CN3)[C@@H]1C)C(=O)N1CCC[C@H](N1)C(=O)OCC(C)(C)C2 (atropisomer, axis not shown)	KRAS WT (Homo sapiens, UniProt P01116+P62937)	7.00 to 8.00
CCn1c(-c2cccnc2[C@H](C)OC)c2c3cc(ccc31)-c1cc(cc(C(F)F)c1)C[C@H](NC(=O)[C@H](C1CCCC1)N1CC[C@]3(CCN(C(=O)[C@@H]4N[C@@H]4C4CC4)C3)C1)C(=O)N1CCC[C@H](N1)C(=O)OCC(C)(C)C2	KRAS WT (Homo sapiens, UniProt P01116+P62937)	6.00 to 7.00
CCn1c(-c2cccnc2[C@H](C)OC)c2c3cc(ccc31)-c1cc(O)cc(c1)C[C@H](NC(=O)[C@H](C(C)C)N1CC[C@]3(CCN(C(=O)[C@H]4CN4)C3)C1=O)C(=O)N1CCC[C@H](N1)C(=O)OCC(C)(C)C2	KRAS WT (Homo sapiens, UniProt P01116+P62937)	7.00 to 8.00
CCn1c(-c2cccnc2[C@H](C)OC)c2c3cc(ccc31)-c1cc(O)cc(c1)C[C@H](NC(=O)[C@H](C(C)C)N(C)C(=O)[C@H]1C[C@H](NC(=O)[C@H]3CN3)C1)C(=O)N1CCC[C@H](N1)C(=O)OCC(C)(C)C2	KRAS WT (Homo sapiens, UniProt P01116+P62937)	7.00 to 8.00
CCn1c(-c2cccnc2[C@H](C)OC)c2c3cc(ccc31)-c1cc(O)cc(c1)C[C@H](NC(=O)[C@H](C(C)C)N(C)C(=O)[C@@H]1CCCN(C(=O)[C@@H]3CN3)C1)C(=O)N1CCC[C@H](N1)C(=O)OCC(C)(C)C2	KRAS WT (Homo sapiens, UniProt P01116+P62937)	7.00 to 8.00
CCn1c(-c2cccnc2[C@H](C)OC)c2c3cc(ccc31)-c1csc(n1)C[C@H](NC(=O)[C@H](C(C)C)N(C)C(=O)N1CC[C@H](N(C)C(=O)[C@H]3CN3)C1)C(=O)N1CCC[C@H](N1)C(=O)OCC(C)(C)C2 (atropisomer, axis not shown)	KRAS WT (Homo sapiens, UniProt P01116+P62937)	6.00 to 7.00
CCn1c(-c2cccnc2[C@H](C)OC)c2c3cc(ccc31)-c1cc(O)cc(c1)C[C@H](NC(=O)[C@H](C(C)C)N(C)C(=O)[C@H]1CCN(S(=O)(=O)[C@@H]3CN3C)C1)C(=O)N1CCC[C@H](N1)C(=O)OCC(C)(C)C2 (single isomer, unassigned)	KRAS WT (Homo sapiens, UniProt P01116+P62937)	6.00 to 7.00
CCn1c(-c2cnccc2COC)c2c3cc(ccc31)-c1cccc(c1)C[C@H](NC(=O)[C@H](C(C)C)N(C)C(=O)CCN=C=NCc1ccccc1C)C(=O)N1CCC[C@H](N1)C(=O)OCC(C)(C)C2	KRAS WT (Homo sapiens, UniProt P01116+P62937)	< 5.00
CCn1c(-c2cccnc2[C@H](C)OC)c2c3cc(ccc31)-c1cc(O)cc(c1)C[C@H](NC(=O)[C@H](C(C)C)N(C)C(=O)[C@@]1(F)CCN(C(=O)[C@@H]3CN3)C1)C(=O)N1CCC[C@H](N1)C(=O)OCC(C)(C)C2 (atropisomer, axis not shown)	KRAS WT (Homo sapiens, UniProt P01116+P62937)	6.00 to 7.00
CCn1c(-c2cnccc2COC)c2c3cc(ccc31)-c1cc(O)cc(c1)C[C@H](NC(=O)[C@H](C(C)C)N(C)C(=O)CN(C)C(=O)[C@H]1[C@@H](C(=O)OC)N1[S@+]([O-])C(C)(C)C)C(=O)N1CCC[C@H](N1)C(=O)OCC(C)(C)C2 (stereo partly shown)	KRAS WT (Homo sapiens, UniProt P01116+P62937)	6.00 to 7.00
CCn1c(-c2cccnc2[C@H](C)OC)c2c3cc(ccc31)-c1cc(O)cc(c1)C[C@H](NC(=O)[C@H](C(C)C)N(C)C(=O)CC1CN(C(=O)[C@@H]3CN3)C1)C(=O)N1CCC[C@H](N1)C(=O)OCC(C)(C)C2	KRAS WT (Homo sapiens, UniProt P01116+P62937)	6.00 to 7.00
CCn1c(-c2cccnc2[C@H](C)OC)c2c3cc(ccc31)-c1cccc(c1)C[C@H](NC(=O)[C@H](C(C)C)N(C)C(=O)[C@H]1C[C@H](N=C=Nc3c(C)cccc3C)C1)C(=O)N1CCC[C@H](N1)C(=O)OCC(C)(C)C2	KRAS WT (Homo sapiens, UniProt P01116+P62937)	5.00 to 6.00
CCn1c(-c2cccnc2[C@H](C)OC)c2c3cc(ccc31)-c1cccc(c1)C[C@H](NC(=O)[C@H](C(C)C)N(C)C(=O)CCN=C=NCCOC)C(=O)N1CCC[C@H](N1)C(=O)OCC(C)(C)C2	KRAS WT (Homo sapiens, UniProt P01116+P62937)	5.00 to 6.00
